Hello, the source for this data is PubChem BioAssay AID652104, in case you need it.

- Protocol Details: qHTS of TDP-43 Inhibitors; also: nearly all actives have a fitted effect of over 50% in size
- Experimental Setup: TDP-43 expressing yeast growth rescue, BacTiter-Glo, 24 h; series mostly up to 46.1 µM
Screen size: about 410,000 compounds; about 7,200 (1.8%) were called active. Roughly 7% stayed inconclusive and do not appear here. Calls follow the shape of the dose curve; as a rule, active = well fitted activation curve with a large enough effect; inconclusive = small, poorly fitted or top-dose-only effect, or another doubt; inactive = no such curve, though single readings can be large or run the other way. The sample as a whole holds a higher share of actives than the screen did.
Pick one: active, inactive

Query :: Please indicate how the test categorized CS(=O)(=O)N(CC(=O)N1CCN(c2cccc(Cl)c2)CC1)c1ccccc1 .
Result :: inactive

Query :: Please indicate how the test categorized O=C(CSc1nnnn1-c1ccc(O)cc1)c1ccc(F)cc1 .
Result :: inactive

Query :: Please indicate how the test categorized COc1cc(NC(=O)CSc2nc3nc(C)c(Cc4ccc(C)cc4)c(C)n3n2)cc(OC)c1OC .
Result :: inactive

Query :: Please indicate how the test categorized COc1ccc(Cn2ccn(Cc3cccc(OC)c3)c(=O)c2=O)cc1 .
Result :: inactive

Query :: Please indicate how the test categorized Cc1nnc(SCC(=O)NCc2ccccc2Cl)c2nn(-c3ccccc3)c(C)c12 .
Result :: inactive

Query :: Please indicate how the test categorized COc1ccc(C=C2CCC3C(CCCC34OCCO4)C2=O)cc1 (configuration not stated) .
Result :: inactive

Query :: Please indicate how the test categorized CC1CCN(C(=O)CN(c2ccc(Oc3ccccc3)cc2)S(C)(=O)=O)CC1 .
Result :: active

Query :: Please indicate how the test categorized CC1CCC(N2CC(=O)N(CCC3=CCCCC3)C(c3ccc(F)cc3)C2=O)CC1 (configuration not stated) .
Result :: inactive

Query :: Please indicate how the test categorized COc1ccc(S(=O)(=O)Nc2cc3c(C(=O)OC(C)C)c(C)oc3c3ccccc23)cc1 .
Result :: inactive

Query :: Please indicate how the test categorized CCCCNc1c(-c2cccc(Sc3ccc(OC)cc3)c2)nc2ccccn12 .
Result :: inactive

Query :: Please indicate how the test categorized Cc1ccc(COc2ccc(C(=O)NN)cc2)cc1 .
Result :: active

Query :: Please indicate how the test categorized CCOc1ccc(OCC)c(NS(=O)(=O)c2ccc3[nH]c(=O)ccc3c2)c1 .
Result :: inactive

Query :: Please indicate how the test categorized NNC(=O)c1ccc(COCC(F)(F)C(F)F)cc1 .
Result :: inactive

Query :: Please indicate how the test categorized COc1ccccc1CNC(=O)Cn1nc(C)c2nn(-c3ccc(Cl)cc3)c(C)c2c1=O .
Result :: inactive

Query :: Please indicate how the test categorized CCn1nnc2cc(C(=O)Nc3ccc(C(=O)OC(C)C)cc3)ccc21 .
Result :: active

Query :: Please indicate how the test categorized COc1ccc2c(c1)CC[C@@H]1[C@@H]2CC[C@]2(C)C(=O)CC[C@@H]12 .
Result :: active

Query :: Please indicate how the test categorized O=C(NC1CC(=O)N(c2ccc(F)cc2)C1)c1cccs1 (configuration not stated) .
Result :: inactive

Query :: Please indicate how the test categorized Oc1ccc(-n2nnnc2SCc2c(F)cccc2Cl)cc1 .
Result :: active

Query :: Please indicate how the test categorized S=c1[nH]nc(Nc2ccccc2)s1 .
Result :: inactive

Query :: Please indicate how the test categorized CCOc1ccc(CNC(=O)c2ccc3c(c2)nnn3C2CCCC2)cc1 .
Result :: inactive

Query :: Please indicate how the test categorized COc1ccc(N(CC(=O)N2CCCCCC2)S(=O)(=O)c2ccccc2)cc1 .
Result :: inactive

Query :: Please indicate how the test categorized CCCCNc1c(-c2ccc(OC)c(Sc3ccc(OC)cc3)c2)nc2ccc(Cl)cn12 .
Result :: active
